Reference source: patent EP3088389A1

- Measurement target: Alpha-glucosidase
- Protocol: Glycosidase specificity panel (Example 4)
Property measured: IC50

Assign IC50 to the following record: CCCCC[C@H]1NC[C@@H](O)[C@@H](O)[C@H]1CO > 160 µM

* * *

- Measurement target: Alpha-hexosaminidase
- Protocol: Glycosidase specificity panel (Example 4)
pIC50: −log10 of the molar value.
Property measured: pIC50

Assign pIC50 to the following record: CCCCC[C@H]1NC[C@@H](O)[C@@H](O)[C@H]1CO < 3.80

* * *

- Measurement target: Beta-galactosidase (Homo sapiens, UniProt P16278)
- Construct: endogenous in cells; host or cells: human peripheral blood mononuclear cells (lysate)
- Protocol: Glycosidase specificity panel, beta-galactosidase from PBMC lysate (Example 4)
- Assay type: biochemical
Property measured: IC50 (nM)
Please respond with the number in nM and leave the unit unwritten.

Param request: IC50 | system Beta-galactosidase (Homo sapiens, UniProt P16278) | item CCCCC[C@H]1NC[C@@H](O)[C@@H](O)[C@H]1CO 20

* * *

- Measurement target: Beta-hexosaminidase
- Protocol: Glycosidase specificity panel (Example 4)
Property measured: IC50

Assign IC50 to the following record: CCCCC[C@H]1NC[C@@H](O)[C@@H](O)[C@H]1CO > 160 µM

* * *

IC50 values for the compounds below.
- Measurement target: Beta-galactosidase (Homo sapiens, UniProt P16278)
- Construct: endogenous in cells; host or cells: human peripheral blood mononuclear cells (lysate)
- Sequence (P16278 29-677): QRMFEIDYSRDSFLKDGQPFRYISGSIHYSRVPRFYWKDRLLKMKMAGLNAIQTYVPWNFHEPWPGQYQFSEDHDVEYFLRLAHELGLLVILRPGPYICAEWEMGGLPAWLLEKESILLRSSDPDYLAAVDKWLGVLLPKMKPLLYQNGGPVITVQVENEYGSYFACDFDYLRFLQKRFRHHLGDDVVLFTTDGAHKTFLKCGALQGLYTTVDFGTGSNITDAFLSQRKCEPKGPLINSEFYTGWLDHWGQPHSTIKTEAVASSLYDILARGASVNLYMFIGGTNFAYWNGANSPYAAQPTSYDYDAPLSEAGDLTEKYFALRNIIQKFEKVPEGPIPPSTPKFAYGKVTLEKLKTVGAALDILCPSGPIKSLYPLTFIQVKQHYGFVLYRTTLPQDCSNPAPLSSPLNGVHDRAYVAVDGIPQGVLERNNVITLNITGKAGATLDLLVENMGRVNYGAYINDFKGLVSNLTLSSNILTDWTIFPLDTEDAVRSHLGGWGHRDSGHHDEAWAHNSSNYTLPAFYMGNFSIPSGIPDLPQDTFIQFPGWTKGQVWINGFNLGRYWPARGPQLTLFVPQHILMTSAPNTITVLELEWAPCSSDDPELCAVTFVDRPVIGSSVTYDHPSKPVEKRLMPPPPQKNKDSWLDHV
- Protocol: Inhibition of wild type beta-galactosidase activity in human peripheral blood mononuclear cell lysate (Example 3)
- Format: biochemical
- Condition label: human PBMC lysate, pH 7.3, 2 hours at 37°C, Example 3; read-out: IC50
Please respond with the number in nM and leave the unit unwritten.

>>> print(df.to_string())
                                  compound  property_measured  meas_value
0  CCCCC[C@H]1NC[C@@H](O)[C@@H](O)[C@H]1CO               IC50          10

Now for another entry.
Param request: IC50 | system Beta-galactosidase (Homo sapiens, UniProt P16278) | item CCCCCC1NCC(O)[C@@H](O)[C@H]1CO (stereo in doubt) 1500
